Data origin: patent US20230272011A1

# study.system: T1, cynomolgus serum albumin (cynomolgus)
# T1 construct: also called CSA; cyno serum albumin
# T1 sequence (A2V9Z4 25-608): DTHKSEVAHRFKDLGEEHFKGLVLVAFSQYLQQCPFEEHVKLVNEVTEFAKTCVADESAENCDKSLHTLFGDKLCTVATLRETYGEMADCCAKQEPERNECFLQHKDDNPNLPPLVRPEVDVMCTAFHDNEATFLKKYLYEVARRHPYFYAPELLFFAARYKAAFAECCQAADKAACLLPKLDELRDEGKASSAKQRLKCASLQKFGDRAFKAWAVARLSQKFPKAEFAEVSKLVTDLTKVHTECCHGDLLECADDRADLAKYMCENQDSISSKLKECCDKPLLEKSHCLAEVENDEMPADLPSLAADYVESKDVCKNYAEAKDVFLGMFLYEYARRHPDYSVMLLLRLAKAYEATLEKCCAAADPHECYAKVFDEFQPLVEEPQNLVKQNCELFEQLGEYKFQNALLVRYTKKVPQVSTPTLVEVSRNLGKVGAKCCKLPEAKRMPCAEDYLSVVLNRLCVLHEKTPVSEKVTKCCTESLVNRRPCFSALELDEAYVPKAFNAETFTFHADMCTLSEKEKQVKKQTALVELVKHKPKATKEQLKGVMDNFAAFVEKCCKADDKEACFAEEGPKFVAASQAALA
# assay.method.text: Octet biolayer interferometry, biotinylated albumin on SA sensors, pH 7.4
Quick list: koff per entry.
measurement.label: koff

{"binder": "HSA-36 (designed binder) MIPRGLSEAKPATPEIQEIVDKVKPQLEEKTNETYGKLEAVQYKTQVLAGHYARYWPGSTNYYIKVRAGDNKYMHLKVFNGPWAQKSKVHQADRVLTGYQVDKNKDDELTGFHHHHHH", "result": "0.0505 s⁻¹"}
{"binder": "HSA-31 (designed binder) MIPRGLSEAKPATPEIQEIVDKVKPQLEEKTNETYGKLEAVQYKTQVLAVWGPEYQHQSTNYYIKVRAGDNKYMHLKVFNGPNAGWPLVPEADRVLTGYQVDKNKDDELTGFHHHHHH", "result": "0.0037 s⁻¹"}
{"binder": "HSA-20 (designed binder) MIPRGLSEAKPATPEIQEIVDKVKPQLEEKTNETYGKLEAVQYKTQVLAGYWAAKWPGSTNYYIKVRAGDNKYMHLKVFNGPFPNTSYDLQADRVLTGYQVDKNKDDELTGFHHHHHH", "result": "0.0148 s⁻¹"}
{"binder": "HSA-41 (designed binder, also called HSA-41 parent; HSA-41 AH parent) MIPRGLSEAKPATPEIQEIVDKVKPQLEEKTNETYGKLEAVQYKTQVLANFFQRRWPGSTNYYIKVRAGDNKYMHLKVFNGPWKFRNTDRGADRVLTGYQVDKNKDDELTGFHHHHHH", "result": "0.0177 s⁻¹"}
